# System: OVCAR-3
# Assay Details: OVCAR3 CTG assay
# Assay type: cell-based
# Measurement Setup: Homo sapiens, OVCAR-3, 144 h; CellTiter-Glo, 6 days incubation
pIC50: −log10 of the molar value.
Can you tell me pIC50 for the items I'm about to list?

- Molecule: "[2H]C([2H])([2H])N1CCCCCC2(C(F)(F)F)CCN(CC2)c2cc(NS(=O)(=O)CCO)ccc2C(=O)Nc2cccc1n2"
  pIC50: "7.00 to 8.00"
- Molecule: "O=C1Nc2cccc(n2)N2CCO[C@@H](COCC3(C(F)(F)F)CCN(CC3)c3cc(NS(=O)(=O)CCO)ccc31)C2"
  pIC50: "> 8.00"
- Molecule: "Cc1cc2nc(n1)NC(C)CCOCC1(C)CCN(CC1)c1cc(NS(=O)(=O)CCO)ccc1C(=O)N2 (stereo not shown)"
  pIC50: "7.00 to 8.00"

# next molecule below
Find the recorded pIC50 belonging to "Cc1cc2nc(n1)N(C1CC1)CCCOCC1(C(F)(F)F)CCN(CC1)c1cc(NS(=O)(=O)CCO)ccc1C(=O)N2" and report it.
6.00 to 7.00

Entry source: patent US20250340569A1
